System: PAK2;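 also: KINOMEscan kinase panel screen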
CONDITION_SUMMARY: concentration: 1 μM,replicates: in singlicate; n = 1
Please enter t where %Inh is greater than or equal to 20%, and f where it is lower.

Examples from the recorded data:
1) Cl.Cl.NC[C@H](Cc1ccc(C(F)(F)F)cc1)NC(=O)c1cc(Br)c(-c2ccnc3[nH]ccc23)s1 [GSK1487252] :: t
2) CC(C)Nc1cc(-c2ccc3c(N)n[nH]c3c2)nc(N)n1 [GSK2221681] :: t
3) CCn1c(-c2nonc2N)nc2c(C#CC(C)(C)O)nc(OCCN)cc21.Cl.Cl [GSK902056] :: t
4) Cc1cc(C(=O)Nc2ccc(Oc3ccc4nc(NC(=O)C5CC5)cn4n3)cc2)nn1-c1ccccc1 :: f
5) C[C@@H](Oc1cc(-c2cnn(C3CCNCC3)c2)cnc1N)c1c(Cl)ccc(F)c1Cl :: f

Identify whether the reported %Inh of the following compound is 20% or greater: CCN(CC)CCOc1ccc(Nc2ncc3cc(-c4c(Cl)cccc4Cl)c(=O)n(C)c3n2)cc1 [SB-601273]
f

Identify whether the reported %Inh of the following compound is 20% or greater: `C[C@@H]1CCN(C(=O)CC#N)C[C@@H]1N(C)c1ncnc2[nH]ccc12`
f

Identify whether the reported %Inh of the following compound is 20% or greater: NC(=O)c1cc(-c2ccccc2)cc2c(C3CCNCC3)c[nH]c12 [GSK301362]
t

Identify whether the reported %Inh of the following compound is 20% or greater: CN(C)CC(O)COc1ccc(Nc2nccc(-c3cnn4nc(N5CCOCC5)ccc34)n2)cc1 (centres unmarked) [GW767488]
t

Identify whether the reported %Inh of the following compound is 20% or greater: Cl.Cl.Nc1nc(-c2ccc3c(N)n[nH]c3c2)cc(N2CCCC(NC(=O)c3ccccc3)C2)n1 (centres unmarked) [GSK2286775]
f
